system: T-47D breast; assay: NCI tumour cell line growth inhibition, 48 h
measurement-type: TGI

Example cases with answers are listed next.
# molecule, result-value
data = [
    ("CCc1ccccc1N=NC(=O)NNc1ccccc1CC", "32.2 µM"),
    ("Oc1ccc(O)c(CNc2ccc(C(O)C(F)(F)F)cc2)c1 (stereo not given)", "61.5 µM"),
    ("COCCNCc1ccc(-c2cc3nccc(Oc4ccc(NC(=S)NC(=O)Cc5ccc(F)cc5)cc4F)c3s2)nc1", "5.75 µM"),
]

INPUT: Look up and report measured TGI for this entry: C[C@@H](c1ccccc1)n1c(N)c(-c2ccccn2)c2ccc([N+](=O)[O-])cc2c1=O
OUTPUT: > 100 µM

INPUT: Look up and report measured TGI for this entry: COC(=O)c1n[nH]c(C)c1N=NN(C)CCC#N
OUTPUT: 93 µM

* * *

tested on: MDA-MB-231 breast; test: NCI tumour cell line growth inhibition, 48 h
Known GI50 of a selection of molecules

Example cases with answers are listed next.
# molecule, target-or-test-system, GI50
measured = [
    ("C=C1CC[C@@H]2[C@](C)(COC(C)=O)[C@H](OC(C)=O)CC[C@@]2(C)[C@@H]1CC(Nc1ccc(S(=O)(=O)NC(C)=O)cc1)C1=CCOC1=O (stereo partly drawn)", "MDA-MB-231 breast", "3.32 µM"),
    ("Cc1nc([P+](c2ccccc2)(c2ccccc2)c2ccccc2)c(Sc2sc(-c3ccccc3)nc2[P+](c2ccccc2)(c2ccccc2)c2ccccc2)o1", "MDA-MB-231 breast", "1.86 µM"),
]

Turning now to a further record.
INPUT: Look up and report measured GI50 for this entry: COc1ccc2c(c1)/C(=C\c1c(-c3cc(OC)ccc3OC)nc3sc(C)cn13)C(=O)N2C
OUTPUT: 16.7 µM

* * *

system: UACC-62 melanoma; assay: NCI tumour cell line growth inhibition, 48 h
Known TGI of a selection of compounds

Example cases with answers are listed next.
# compound, TGI
records = [
    ("CCN(Cc1ccc(C)cc1)c1ccc(CO)c(Cl)c1", "0.684 µM"),
    ("O=C1/C(=C\\Oc2ccc(F)cc2)N2CCC1CC2", "> 100 µM"),
    ("O=C(O)CCCC(=O)Nn1c(Cc2ccc(Cl)cc2)n[nH]c1=O", "> 100 µM"),
]

INPUT: Look up and report measured TGI for this entry: COC(=O)/C=C1\C(=O)N(C(C)=O)c2ccc(Br)cc21
OUTPUT: 25.3 µM

* * *

system: HOP-18 NSCLC; experiment: NCI tumour cell line growth inhibition, 48 h
measurement-type: TGI (µM)
Report the value in µM with no unit label.

Example cases with answers are listed next.
# molecule, target-or-test-system, readout-unit, result-value
measured = [
    ("COc1ccc(C(=O)C2=NON3OC23C(=O)c2ccc(OC)cc2)cc1 (stereo unspecified)", "HOP-18 NSCLC", "µM", 33.7),
    ("COc1ccc(C/C(=N/O)C(=O)NCCc2cc(Br)c(OCCCN(C)C)c(Br)c2)cc1Br", "HOP-18 NSCLC", "µM", 0.0986),
]

Turning now to a further record.
INPUT: Print HOP-18 NSCLC TGI for CC(=O)O[C@H]1C(=O)[C@@]2(C)C(C(OC(=O)c3ccccc3)[C@]3(O)C[C@H](OC(=O)C(OC(=O)CCCC(=O)NCCCN(C)C)C(NC(=O)c4ccccc4)c4ccccc4)C(C)=C1C3(C)C)C1(OC(C)=O)COC1C[C@@H]2O (stereo partly specified) .
OUTPUT: 35

* * *

Known TGI of a selection of compounds
test system: CCRF-CEM leukemia; assay: NCI tumour cell line growth inhibition, 48 h

Example cases with answers are listed next.
# compound, TGI
records = [
    ("C/C(=C1/N=C(c2cc([N+](=O)[O-])ccc2Cl)N(c2cccc(C)c2)C1=O)c1cc2ccccc2oc1=O", "> 100 µM"),
    ("N#CCCN(c1ccc(C=Nc2ccccc2)cc1)S(=O)(=O)c1ccccc1", "> 100 µM"),
    ("CC(C)(CN1CCCCC1)C(=O)/C=C/c1ccc(/C=C/C(=O)C(C)(C)CN2CCCCC2)cc1", "0.234 µM"),
    ("C/C(=N\\NC(=S)N1CCCCC1)c1ccccn1", "> 25.1 µM"),
    ("CC1=Nc2ccccc2S/C1=C(/C)NNS(=O)(=O)c1ccc(C)cc1", "86.7 µM"),
    ("CCOC(=O)C(/C(=N/S(=O)(=O)c1cc(C)c(Cl)cc1[S-])[n+]1ccc(N(C)C)cc1)=C(/O)c1ccc([N+](=O)[O-])cc1", "87.2 µM"),
]

INPUT: Look up and report measured TGI for this entry: C[C@@H](NC1CCCC[C@H]1O)c1ccccc1 (stereo partly drawn)
OUTPUT: > 100 µM

* * *

test system: NCI-H23 lung; experiment: NCI tumour cell line growth inhibition, 48 h
measurement-type: TGI

Example cases with answers are listed next.
# molecule, measurement-type, result-value
data = [
    ("CC1=CC(=O)CC(C)(C)C1/C=C/C(C)=C/C=C/C(C)=C/C=C/C=C(C)/C=C/C=C(C)/C=C/C1C(C)=CC(=O)CC1(C)C (stereo not given)", "TGI", "> 100 µM"),
    ("Cc1c(Cl)cccc1NC(=O)C(=O)C(C(=O)c1ccccc1-c1ccccc1)C1OC(=O)c2ccccc21 (stereo not given)", "TGI", "30.3 µM"),
    ("CCN1C/C(=C\\c2cc(OC)c(OC)cc2OC)C(=O)/C(=C/c2cc(OC)c(OC)cc2OC)C1", "TGI", "15.4 µM"),
]

INPUT: Look up and report measured TGI for this entry: N#Cc1nc(CCN2C(=O)c3ccccc3C2=O)oc1N
OUTPUT: > 100 µM

INPUT: Look up and report measured TGI for this entry: O=P12N(CCN1c1ccccc1)CCN2c1ccccc1
OUTPUT: > 100 µM

INPUT: Look up and report measured TGI for this entry: O=C(O)c1ccc(C(=O)c2ccccc2C(=O)O)cc1C(=O)O
OUTPUT: > 100 µM

INPUT: Look up and report measured TGI for this entry: COc1ccc(C2CC(c3cccc(Nc4ccnc5cc(Cl)ccc45)c3)=NN2C=O)cc1 (stereo not given)
OUTPUT: > 81.6 µM

INPUT: Look up and report measured TGI for this entry: CCCCCN(CCCCC)C(=O)[C@@H](CCC(=O)O)NC(=O)c1cc2ccccc2[nH]1
OUTPUT: 58 µM

INPUT: Look up and report measured TGI for this entry: O=C(CSc1nc2ccc([N+](=O)[O-])cc2s1)c1ccc2ccccc2c1
OUTPUT: > 100 µM

INPUT: Look up and report measured TGI for this entry: CN(C)c1ccc(C=Nc2ccc(-c3nc4ccccc4[nH]3)cc2)cc1
OUTPUT: > 100 µM

* * *

tested on: IGROV1 ovarian; test: NCI tumour cell line growth inhibition, 48 h
Where a SMILES comes first, the peptide text is derived from it. [ ]: non-standard residue; d: D form. The star is where a group is joined. ξ: configuration not given here. ξF = NC(Cc1ccccc1)C(=O)O; Cbz = O=C(OCc1ccccc1)*; Aib = CC(C)(N)C(=O)O; NHNH2 = NN*
Known TGI of a selection of molecules

Example cases with answers are listed next.
# molecule, result-value
rows = [
    ("CC(C)(NC(=O)OCc1ccccc1)C(=O)NC(Cc1ccccc1)C(=O)NN (stereo unspecified) (Cbz-[Aib]-[ξF]-NHNH2)", "> 100 µM"),
    ("O=C1C2Nc3ccccc3SC2C(=O)N1c1ccc(Br)cc1 (stereo unspecified)", "> 100 µM"),
    ("CCN(Cc1ccc(C)cc1)c1ccc(CO)c(Cl)c1", "0.938 µM"),
    ("Cc1ccc(S(=O)(=O)OCCn2cnc3nc(NC(=O)c4ccccc4)[nH]c(=O)c32)cc1", "> 100 µM"),
    ("CC(C)(O)/C=C\\P(=O)(O)O", "> 100 µM"),
]

Turning now to a further record.
INPUT: Look up and report measured TGI for this entry: COc1ccc(C2=N[C@@H](Cc3ccccc3)C(=O)Nc3ccsc32)cc1
OUTPUT: 41 µM

* * *

tested on: NCI-H23 lung; assay: NCI tumour cell line growth inhibition, 48 h
measurement-type: GI50

Example cases with answers are listed next.
# compound, target-or-test-system, result-value
data = [
    ("COC[C@@H](N=C1NC(=O)/C(=C/c2ccc3ncccc3c2)S1)c1ccccc1", "NCI-H23 lung", "11.5 µM"),
    ("CCCCCCCCCCCCOC1C(CNC(=O)C2OC3OC(C)(C)OC3C2NC(=O)Nc2ccc(CC(=O)OC)cc2)OC2OC(C)(C)OC21 (stereo unspecified)", "NCI-H23 lung", "> 100 µM"),
    ("COc1ccc(C2CC(c3cccc(Nc4ccnc5cc(Cl)ccc45)c3)=NN2C=O)cc1 (stereo unspecified)", "NCI-H23 lung", "0.967 µM"),
    ("O=S(=O)(NCCCNc1nccc(-c2c(-c3ccc(O)cc3)nc3sccn23)n1)c1ccc(F)cc1", "NCI-H23 lung", "2.24 µM"),
]

INPUT: Look up and report measured GI50 for this entry: NS(=O)(=O)c1ccc(Nc2cc(-c3cccc(O)c3)[nH]n2)cc1
OUTPUT: > 25 µM

INPUT: Look up and report measured GI50 for this entry: O=C(Cc1ccc(/C=C/C(=O)c2ncc[nH]2)cc1)Nc1ccc(F)cc1
OUTPUT: 1.91 µM
